Taken from the RNAGym collection of RNA variant scans (doi:10.7554/elife.80360).

B1: CPEB3 Ribozyme (parent)
chain: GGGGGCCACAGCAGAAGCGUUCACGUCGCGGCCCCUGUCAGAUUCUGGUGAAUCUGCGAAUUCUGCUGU

- Variants of: B1
- runDescription: self-cleavage, relative activity (ratio to wild type); higher = more cleavage; co-transcriptional
experimentalEndpoint: self-cleavage
One number for each entry.

G19U U53A	0.273

Hi there! I need self-cleavage for each item below, if you can.
1. G25U U43A
2. C18G C39U
3. U20C A40C
4. C7G U21A
5. G4U A23U
6. A10U U53C

1. 0.0919
2. 0.196
3. 0.215
4. 0.395
5. 0.86
6. 0.871

Hi there! I need self-cleavage for each item below, if you can.
1. C29A U49A
2. A16G A42U
3. G14C U20G
4. U43A G68A
5. G5C U43A
6. G30C C45G

0.805
0.83
0.151
0.933
0.183
0.578

Hi there! I need self-cleavage for each item below, if you can.
1. G17U G25U
2. C6G C7G

0.121
0.0901

Record C29A A59U , field self-cleavage: 0.283
